# target: BAP-tagged AMPK α1β2γ1 (Homo sapiens, UniProt O43741+P54619+Q13131)
# Construct: Recombinant full-length AMPK heterotrimeric complexes α1β1γ1, α1β2γ1, α1β2γ3, α2β1γ1, α2β2γ1 and α2β2γ3 were cloned into a tricistronic vector system; 6X-His (N); made in house; host or cells: E. coli BL21-CodonPlus (DE3)-RIPL, co-expressed with BirA
# Sequence (Q13131 whole entry, one chain of several): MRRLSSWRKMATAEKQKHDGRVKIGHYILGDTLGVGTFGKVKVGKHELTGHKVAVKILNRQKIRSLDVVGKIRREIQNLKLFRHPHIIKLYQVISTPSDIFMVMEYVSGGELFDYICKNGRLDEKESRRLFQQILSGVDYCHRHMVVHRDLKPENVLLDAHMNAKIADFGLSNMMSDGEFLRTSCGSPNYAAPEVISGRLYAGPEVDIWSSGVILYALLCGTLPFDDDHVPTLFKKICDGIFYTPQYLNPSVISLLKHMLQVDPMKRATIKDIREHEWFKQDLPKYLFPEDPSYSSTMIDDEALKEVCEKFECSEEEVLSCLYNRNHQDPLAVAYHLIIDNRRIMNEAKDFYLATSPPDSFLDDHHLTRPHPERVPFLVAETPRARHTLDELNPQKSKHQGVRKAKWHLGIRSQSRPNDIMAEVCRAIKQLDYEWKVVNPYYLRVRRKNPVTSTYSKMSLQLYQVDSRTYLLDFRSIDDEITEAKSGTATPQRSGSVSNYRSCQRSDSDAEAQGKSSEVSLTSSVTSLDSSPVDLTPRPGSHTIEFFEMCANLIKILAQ
# Sequence (P54619 whole entry, one chain of several): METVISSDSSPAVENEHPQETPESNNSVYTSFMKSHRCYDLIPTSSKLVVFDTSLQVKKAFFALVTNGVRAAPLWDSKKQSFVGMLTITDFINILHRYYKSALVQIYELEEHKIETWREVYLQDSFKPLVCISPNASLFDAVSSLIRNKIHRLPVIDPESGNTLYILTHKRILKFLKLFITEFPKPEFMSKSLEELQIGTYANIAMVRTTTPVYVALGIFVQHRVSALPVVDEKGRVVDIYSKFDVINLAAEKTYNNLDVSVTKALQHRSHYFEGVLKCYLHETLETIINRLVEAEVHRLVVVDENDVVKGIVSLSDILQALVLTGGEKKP
# experiment-summary: SPR direct binding (Biacore)
# setup-conditions: presence of Mg2+, cell spans KD1 and KD2, read-out: KD (single measurable binding affinity)
Please go through the items and note down their Kd.

{"smi": "Nc1ncnc2c1ncn2[C@@H]1O[C@H](COP(=O)(O)OP(=O)(O)O)[C@@H](O)[C@H]1O", "measurement-name": "Kd", "measurement": "28.2 µM"}

Consider the record given below.
Quick check: Kd of Nc1ncnc2c1ncn2[C@@H]1O[C@H](COP(=O)(O)OP(=O)(O)OP(=O)(O)O)[C@@H](O)[C@H]1O ?
95 µM

---

# target: BAP-tagged AMPK α2β2γ1 (Homo sapiens, UniProt O43741+P54619+P54646)
# Construct: Recombinant full-length AMPK heterotrimeric complexes α1β1γ1, α1β2γ1, α1β2γ3, α2β1γ1, α2β2γ1 and α2β2γ3 were cloned into a tricistronic vector system; 6X-His (N); made in house; host or cells: E. coli BL21-CodonPlus (DE3)-RIPL, co-expressed with BirA
# Sequence (P54619 whole entry, one chain of several): as the sequence (P54619 whole entry, one chain of several) above
# experiment-summary: SPR direct binding (Biacore)
# setup-conditions: tighter site, absence of Mg2+ and Stau, read-out: KD1
Please go through the items and note down their Kd.
One number for each entry, in nM.

{"smi": "Nc1ncnc2c1ncn2[C@@H]1O[C@H](COP(=O)(O)OP(=O)(O)OP(=O)(O)O)[C@@H](O)[C@H]1O", "target": "BAP-tagged AMPK α2β2γ1 (Homo sapiens, UniProt O43741+P54619+P54646)", "Kd [nM]": 920}
{"smi": "Nc1ncnc2c1ncn2[C@@H]1O[C@H](COP(=O)(O)O)[C@@H](O)[C@H]1O", "target": "BAP-tagged AMPK α2β2γ1 (Homo sapiens, UniProt O43741+P54619+P54646)", "Kd [nM]": 2900}

Consider the record given below.
Quick check: Kd of Nc1ncnc2c1ncn2[C@@H]1O[C@H](COP(=O)(O)OP(=O)(O)O)[C@@H](O)[C@H]1O ?
2470

---

# target: BAP-tagged AMPK α2β2γ3 (Homo sapiens, UniProt O43741+P54646+Q9UGI9)
# Construct: Recombinant full-length AMPK heterotrimeric complexes α1β1γ1, α1β2γ1, α1β2γ3, α2β1γ1, α2β2γ1 and α2β2γ3 were cloned into a tricistronic vector system; 6X-His (N); made in house; host or cells: E. coli BL21-CodonPlus (DE3)-RIPL, co-expressed with BirA
# Sequence (P54646 whole entry): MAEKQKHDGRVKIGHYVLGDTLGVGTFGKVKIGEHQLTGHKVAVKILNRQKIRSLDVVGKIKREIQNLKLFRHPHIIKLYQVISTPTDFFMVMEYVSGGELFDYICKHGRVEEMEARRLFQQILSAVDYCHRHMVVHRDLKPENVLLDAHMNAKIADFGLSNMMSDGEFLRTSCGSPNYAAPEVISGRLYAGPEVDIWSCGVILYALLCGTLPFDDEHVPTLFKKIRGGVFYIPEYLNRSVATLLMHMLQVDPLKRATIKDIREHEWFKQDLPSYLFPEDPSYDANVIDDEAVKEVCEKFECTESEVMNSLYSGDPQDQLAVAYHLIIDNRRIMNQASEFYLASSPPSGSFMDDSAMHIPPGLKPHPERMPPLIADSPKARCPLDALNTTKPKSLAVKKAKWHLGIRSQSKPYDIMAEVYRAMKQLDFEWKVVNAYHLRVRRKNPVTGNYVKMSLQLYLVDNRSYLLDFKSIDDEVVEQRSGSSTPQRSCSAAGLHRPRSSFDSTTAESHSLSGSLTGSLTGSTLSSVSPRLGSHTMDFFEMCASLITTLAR
# Sequence (O43741 whole entry): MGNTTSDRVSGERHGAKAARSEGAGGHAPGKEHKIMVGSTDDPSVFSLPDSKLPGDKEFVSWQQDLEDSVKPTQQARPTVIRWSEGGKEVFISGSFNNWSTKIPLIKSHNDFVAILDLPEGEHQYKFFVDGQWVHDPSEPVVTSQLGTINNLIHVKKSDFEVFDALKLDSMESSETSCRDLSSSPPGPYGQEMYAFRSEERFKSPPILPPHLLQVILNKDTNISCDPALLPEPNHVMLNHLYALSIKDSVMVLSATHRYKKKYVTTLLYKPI
# Sequence (Q9UGI9 whole entry): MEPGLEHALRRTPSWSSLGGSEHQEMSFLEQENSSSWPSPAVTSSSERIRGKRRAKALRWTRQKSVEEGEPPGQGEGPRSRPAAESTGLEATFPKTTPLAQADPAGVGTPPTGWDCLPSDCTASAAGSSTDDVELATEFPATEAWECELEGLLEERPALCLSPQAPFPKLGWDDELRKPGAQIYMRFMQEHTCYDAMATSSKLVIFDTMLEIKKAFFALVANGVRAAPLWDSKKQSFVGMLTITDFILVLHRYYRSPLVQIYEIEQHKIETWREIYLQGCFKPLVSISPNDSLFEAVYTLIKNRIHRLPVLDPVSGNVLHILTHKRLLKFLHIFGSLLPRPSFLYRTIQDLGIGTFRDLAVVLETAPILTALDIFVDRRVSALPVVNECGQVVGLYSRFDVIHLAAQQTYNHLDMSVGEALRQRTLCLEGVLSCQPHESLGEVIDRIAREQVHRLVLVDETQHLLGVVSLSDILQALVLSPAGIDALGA
# experiment-summary: SPR direct binding (Biacore)
# setup-conditions: presence of Mg2+ and 25 nM Stau, cell spans KD1 and KD2, read-out: KD (single measurable binding affinity)
measurement-name: pKd
Numbers only, as −log10 of the molar value.

{"smi": "Nc1ncnc2c1ncn2[C@@H]1O[C@H](COP(=O)(O)OP(=O)(O)O)[C@@H](O)[C@H]1O", "target": "BAP-tagged AMPK α2β2γ3 (Homo sapiens, UniProt O43741+P54646+Q9UGI9)", "measurement": 4.90}

Consider the record given below.
Quick check: pKd of Nc1ncnc2c1ncn2[C@@H]1O[C@H](COP(=O)(O)OP(=O)(O)OP(=O)(O)O)[C@@H](O)[C@H]1O ?
3.27
